Experiment: ATG_RORE_CIS: Attagene CIS-FACTORIAL HepG2 Assay for human RAR-related Orphan Receptor Element (RORE) (AID 2282959)
Settings: HepG2 Attagene cis-factorial RORE reporter, mRNA; actives raise or lower the signal
Activity calls are given as the source filed them. Rule for the calls: active = hit-call score of the fitted dose curve at least 0.9, where 1 is the maximum; inactive = score below 0.9.
reported-property: outcome

• O=C(OCc1ccccc1)c1ccc(O)cc1 = inactive
• O=C(O)CCC(=O)O = inactive
• COC(Cc1ccccc1)OC = inactive

---

Assay: ATG_NF_kB_CIS: Attagene CIS-FACTORIAL HepG2 Assay for human Nuclear Factor Kappa B (NF-kB) (AID 2282991)
Settings: HepG2 Attagene cis-factorial NF-kB reporter mRNA; actives raise or lower the signal
Activity calls are given as the source filed them. Rule for the calls: active = hit-call score of the fitted dose curve at least 0.9, where 1 is the maximum; inactive = score below 0.9. Peptide text beside a SMILES is read from it.
Classes used: 1 (yes) = active, 0 (no) = inactive

• CCCCCCCCCCCCCCCCCCOS(=O)(=O)O = 1 (yes)
• CCCC(CC)c1ccccc1 (stereo not drawn) = 0 (no)
• CCOC(=O)/C=C\C(=O)OCC = 0 (no)
• CC1=CC(C)C(C=O)CC1 (stereo not drawn) = 0 (no)
• CCOc1ccc(NC(N)=O)cc1 = 0 (no)
• Cc1c(Cl)cccc1Cl = 0 (no)
• CC(C)CCCCCOC(=O)CS = 0 (no)
• C=C(C)C(=O)OCCOC(=O)C(=C)C = 0 (no)
• C1CCSC1 = 0 (no)
• CC(C)(C)C1CCC(=O)CC1 = 0 (no)
• COc1nccnc1CC(C)C = 0 (no)
• Nc1ccc(Cl)c(N)c1 = 0 (no)
• C=Cc1ccc(OC(C)=O)cc1 = 0 (no)
• CCCCC1CCC(=O)O1 (stereo not drawn) = 0 (no)
• CCCC(C)C(=O)OCC (stereo not drawn) = 0 (no)
• CC(C)=CCl = 0 (no)
• CC(Cl)COP(=O)(OCC(C)Cl)OCC(C)Cl (stereo not drawn) = 0 (no)
• CC(CCC(=O)O)(c1ccc(O)cc1)c1ccc(O)cc1 = 0 (no)
• Cc1cc(C)c(C=O)c(C)c1 = 0 (no)
• COC(=O)[C@H](Cc1ccccc1)NC(=O)[C@@H](N)CC(=O)O (H-Asp-Phe-OMe) = 0 (no)
• CCOC(=O)C1=NN(c2ccc(Cl)cc2Cl)C(C)(C(=O)OCC)C1 (stereo not drawn) = 0 (no)
• Cn1cccc1 = 0 (no)
• CC(C)C(=O)OCCOc1ccccc1 = 0 (no)
• Clc1cccnc1 = 0 (no)
• CCCCOCCOCCOC(C)=O = 0 (no)
• CCC1(C)C(=O)N(Cl)C(=O)N1Cl (stereo not drawn) = 0 (no)
• CCc1cccc(C)c1N(C(=O)CS(=O)(=O)O)C(C)COC (stereo not drawn) = 0 (no)
• C=C1C[C@H]2[C@@H]3C=C(C)C4=CC(=O)CC[C@]4(C)[C@H]3CC[C@]2(C)[C@@]1(OC(C)=O)C(C)=O = 1 (yes)
• CCC[Si](OC)(OC)OC = 0 (no)
• CCOC(=O)c1ccccc1C = 0 (no)
• CC(=O)OC(C)c1ccccc1 (stereo not drawn) = 0 (no)
• CC(C)CO = 0 (no)
• CCN(CC)c1cccc(C)c1 = 0 (no)

---

Assay: ATG_TA_CIS: Attagene CIS-FACTORIAL HepG2 Assay for human TA Basal Promoter (AID 2282964)
Conditions: HepG2 Attagene CIS-factorial TA basal promoter reporter; actives raise or lower the signal
Calls of active or inactive are those of the source. Rule for the calls: active = hit-call score of the fitted dose curve at least 0.9, where 1 is the maximum; inactive = score below 0.9.
Classes used: 1 for active, 0 for inactive

- CCCCCC1=CCCC1=O: 0
- CC(=O)OCCc1ccccc1: 0
- C/C=C/C=C/CCCCCCCO: 1
- Nc1ccnc(=O)[nH]1: 0
- Cc1c[nH]c(=O)[nH]c1=O: 0
- CCCCCCCCCCCC(C)=O: 0
- N#Cc1ccc(C2CCCc3cncn32)cc1 (stereo not given): 0
- O=C(O)c1cc(O)c2ccccc2c1O: 1
- CCCCC/C=C\C/C=C\CCCCCCCC(=O)O: 1
- C=CC(=O)O[C@H]1C[C@@H]2CC[C@@]1(C)C2(C)C: 1
- CN(C)c1ccc2nc3ccc(=[N+](C)C)cc-3sc2c1: 0
- CC12CCC(CC1)C(C)(C)O2: 0
- CC1=CP(=O)(c2ccccc2)CC1 (stereo not given): 0
- CC(C)(c1ccccc1)c1ccc(Nc2ccc(C(C)(C)c3ccccc3)cc2)cc1: 0
- CCc1cccc(C)c1N: 0

---

Tested on: SRD5A2 (gene 6716)
Experiment: CCTE_Deisenroth_5AR_NBTE_ratio: CCTE's 5alpha-reductase NanoBRET Target Engagement Assay - Ratio, Deisenroth Lab (AID 2284322)
Details: actives raise or lower the signal
Active and inactive are the calls of the source. Rule for the calls: active = hit-call score of the fitted dose curve at least 0.9, where 1 is the maximum; inactive = score below 0.9.
reported-property: AC50

* CCCCCCCCCCCCc1ccc(O)cc1 | inactive
* CCCCCCCCCCCC(=O)N(C)CC(=O)O | inactive
* CC1=NN(c2ccc(S(=O)(=O)O)cc2)C(=O)C1N=Nc1ccccc1 (stereo unspecified) | 10 µM (active)
* Oc1ccc(-c2ccccc2)c(Cl)c1 | inactive
* CC(C)(C)NC(=O)[C@H]1CC[C@H]2[C@@H]3CC[C@H]4NC(=O)C=C[C@]4(C)[C@H]3CC[C@]12C | 0.00734 µM (active)
* C=C[C@@]1(C)CC(=O)[C@]2(O)[C@@]3(C)[C@@H](O)CCC(C)(C)[C@@H]3[C@H](O)[C@H](OC(C)=O)[C@@]2(C)O1 | inactive
* CN(C)c1ccc2nc3ccc(=[N+](C)C)cc-3sc2c1 | 2.95 µM (active)
* O=S(=O)(O)c1ccc(N=Nc2c(O)ccc3ccccc23)cc1 | 26.6 µM (active)
* CCCCCCCCCC[N+](C)(CCCCCCCCCC)CCC[Si](OC)(OC)OC | inactive
* CCCCCCCCCCCCCC(=O)OC(C)C | inactive
* C=CCOC(=O)c1ccc(C(=O)OCC=C)c(C(=O)OCC=C)c1 | inactive

---

Assay: ATG_Sox_CIS: Attagene CIS-FACTORIAL HepG2 Assay for human SRY-box transcription factor (SOX) (AID 2282960)
Conditions: HepG2 Attagene cis-factorial SOX reporter, mRNA; actives raise or lower the signal
The source made the active and inactive calls. The calls were made as follows: active = hit-call score of the fitted dose curve at least 0.9, where 1 is the maximum; inactive = score below 0.9.
Classes used: 1 = active, -1 = inactive

- O=C(Nc1ccccc1)c1cc(Cl)ccc1O: -1
- CCCCCC1=CCCC1=O: -1
- CCCCCCCOC(=O)c1ccc(O)cc1: 1
- CCCCCCCCCCCCC: -1
- CC(CC(C)C)=NO: -1
- CC/C=C\CCOC(=O)c1ccccc1O: -1
- COc1cc(O)c(C(=O)c2ccccc2)cc1S(=O)(=O)O: -1
- [Cl][Sc]([Cl])[Cl]: -1
- CC(C)[N+](C)(CCOC(=O)C1c2ccccc2Oc2ccccc21)C(C)C: -1
- CC(=O)OC(C)c1ccccc1 (centres undefined): -1
- Cc1c[nH]c(=O)[nH]c1=O: -1
- CCNc1nc(NC(C)(C)C)nc(OC)n1: -1
- CC(=O)OCc1ccccc1: -1
- CC(C)(CO)COC(=O)C(C)(C)CO: -1
- CC(CCC(=O)O)(c1ccc(O)cc1)c1ccc(O)cc1: -1
- CCCCNS(=O)(=O)c1ccccc1: -1
- CCCCC1C(=O)N(c2ccccc2)N(c2ccccc2)C1=O: -1
- C=Cc1ccc(OC(C)=O)cc1: -1
- C=C(C)OC(C)=O: -1
- CCCC(CC)c1ccccc1 (centres undefined): -1
- CC(=O)OC1CCCCC1C(C)(C)C (centres undefined): -1
- CCCCCCCC(=O)OCC: -1
- CC1(C)C(=O)N(CO)C(=O)N1CO: -1
- CC1=CC(C)C(C=O)CC1 (centres undefined): -1
- CCc1cccc(C)c1N: -1
- CC=C(C)C(C)=O: -1
- CC(=O)OCCc1ccccc1: -1
- CCCCOCCOCCOC(C)=O: -1
- Cc1cc(C)n(CO)n1: -1
- Nc1nc(N)nc(-c2ccccc2)n1: -1
- Cc1cc(C)c(C=O)c(C)c1: -1
- CO[Si](CCCS)(OC)OC: -1
- Oc1c(Cl)cc(Cl)c(Cl)c1Cl: -1
- C=C(C)C(=O)OCCOC(=O)C(=C)C: -1
- CCC(C)C(=O)OC (centres undefined): -1
- CC1=CCC(C(C)C)C=C1 (centres undefined): -1
- C=CCNCC=C: -1
- C=C[Si](OCCOC)(OCCOC)OCCOC: -1
- CCc1cccc(C)c1N(C(=O)CS(=O)(=O)O)C(C)COC (centres undefined): -1
- CC(=O)c1ccc(S(=O)(=O)NC(=O)NC2CCCCC2)cc1: -1
- COc1nccnc1CC(C)C: -1
- C=CC(=O)OCCCCCCCC(C)C: -1
- CC(C)(c1ccccc1)c1ccc(Nc2ccc(C(C)(C)c3ccccc3)cc2)cc1: -1
- O=C(O)c1cc(O)c2ccccc2c1O: -1
- CN1CCN(C)CC1: -1
- NNS(=O)(=O)c1ccc(Oc2ccc(S(=O)(=O)NN)cc2)cc1: -1
- Cc1cc(=O)[nH]c(=O)[nH]1: -1
- O=C(O)CCC(=O)O: -1
- CC(C)CO: -1
- Cc1ccccc1CCO: -1
- CO[Si](C)(C)OC: -1
- O=C1CCCCC1C1CCCCC1 (centres undefined): -1
- CC(C=O)c1ccccc1 (centres undefined): -1
- CCOC(=O)OC(=O)OCC: -1
- c1ccc2cnccc2c1: -1
- CCOB(OCC)OCC: -1
- C=CCOC(=O)c1ccc(C(=O)OCC=C)c(C(=O)OCC=C)c1: -1
- CC1CCC(=O)C1=O (centres undefined): -1
- CC(C)(C)NC(=O)[C@H]1CC[C@H]2[C@@H]3CC[C@H]4NC(=O)C=C[C@]4(C)[C@H]3CC[C@]12C: -1
- Oc1ccc(/C=C/c2cc(O)cc(O)c2)cc1: -1
- CC(C)OC(=O)c1ccccc1: -1
- CCOC(=O)C1=NOC(c2ccccc2)(c2ccccc2)C1: -1
- CC(C)(CO)C(O)C(=O)NCCCO (centres undefined): -1
- C=CCCCCCCCCC=O: -1
